Reported Population Mitochondria Different-Phenotype (%) is given for each of the following molecules.
- System: Fibroblast
- Assay Notes: Multiplex assay against human fibroblast
- Type: toxicity, cell-based
- Study Conditions: 12 h, 1 µM, compound concentration 1 uM, replicate 2
The reply must contain the numeric value and, after it, the unit.

Solved entries (count: 3):
Cc1ccc(C(=O)Nc2cccc(C(F)(F)F)c2)cc1Nc1nc(-c2cccnc2)nc2c1cnn2C 25%
CCc1cccc(CC)c1NC(=O)c1nn(C)c2c1CCc1cnc(Nc3ccc(C(=O)NC4CCN(C)CC4)cc3OC(F)(F)F)nc1-2 14%
C=CCn1c(=O)c2cnc(Nc3ccc(N4CCN(C)CC4)cc3)nc2n1-c1cccc(C(C)(C)O)n1 19%

Query: Looking for the measured Population Mitochondria Different-Phenotype (%) of `Cc1cc(C)c(S(=O)(=O)N(Cc2ccc(-c3cccc(S(C)(=O)=O)c3)cc2)Cc2ccc(C(F)(F)F)o2)c(C)c1` , can you help?
Result: 21%

====

Reported Population Healthy Nuclei (%) is given for each of the following compounds.
- Tested on: HEK-293T
- Assay Notes: Multiplex assay against HEK293T
- Format: toxicity, cell-based
- Study Conditions: human, 24 h, 10 µM, compound concentration 10 uM, replicate 1
The reply should contain only the number, in %.

Solved entries (count: 2):
COCC(=O)NC/C=C/c1ccc2ncnc(Nc3ccc(Oc4ccc(C)nc4)c(C)c3)c2c1 17
COc1cc(N2CCN(C)CC2)ccc1Nc1ncc2c(n1)N(C)c1ccccc1C(=O)N2C 19

For the next question, use this compound.
Query: Looking for the measured Population Healthy Nuclei (%) of `Cl.Oc1ccc2c3c1O[C@H]1c4[nH]c5c(c4C[C@@]4(O)[C@@H](C2)N(CC2CC2)CC[C@]314)C[C@@]1(O)[C@H]2Cc3ccc(O)c4c3[C@@]1(CCN2CC1CC1)[C@H]5O4` , can you help?
Result: 58

====

- Test system: U2OS
- Assay Notes: Multiplex assay against U2OS
- Type: toxicity, cell-based
- Study Conditions: human, 12 h, 1 µM, compound concentration 1 uM, replicate 1
Reported Property: Total Cell Count
Form rule: numeric answer, no unit written next to it.

Solved entries (count: 4):
Compound	Value
Cl.Oc1ccc2c3c1O[C@H]1c4[nH]c5c(c4C[C@@]4(O)[C@@H](C2)N(CC2CC2)CC[C@]314)C[C@@]1(O)[C@H]2Cc3ccc(O)c4c3[C@@]1(CCN2CC1CC1)[C@H]5O4	105
O=C(Nc1ccc(-c2ccnc(Nc3ccc(N4CCOCC4)cc3)n2)cc1)[C@@H]1CCCN1	100
O=C(Nc1ccc(-n2nc(-c3cccnc3)cc2C(F)(F)F)cn1)c1ccc(-c2ccccc2)c(F)c1	99
COc1ccc(-c2ccc3c(N4CCOCC4)nc(N4C[C@@H](C)O[C@@H](C)C4)nc3n2)cc1CO	158

Query: Looking for the measured Total Cell Count of `Cc1ccc(C(=O)Nc2cccc(C(F)(F)F)c2)cc1Nc1nc(-c2cccnc2)nc2c1cnn2C` , can you help?
Result: 151

Query: Looking for the measured Total Cell Count of COc1cc2ncnc(Nc3ccc(F)c(Cl)c3)c2cc1NC(=O)/C=C/CN1CCCCC1 [DACOMITINIB ANHYDROUS] , can you help?
Result: 197

Query: Looking for the measured Total Cell Count of `CCCS(=O)(=O)Nc1ccc(F)c(C(=O)c2c[nH]c3ncc(Cl)cc23)c1F` , can you help?
Result: 145

Query: Looking for the measured Total Cell Count of `CCOc1cc(C(=O)N2CCC(N3CCN(C)CC3)CC2)ccc1Nc1ncc2c(n1)N(C1CCCC1)c1ccccc1C(=O)N2C` , can you help?
Result: 153

Query: Looking for the measured Total Cell Count of `CCN1CCN(c2ccc(Nc3cc(N(C)C(=O)Nc4c(Cl)c(OC)cc(OC)c4Cl)ncn3)cc2)CC1` , can you help?
Result: 142

Query: Looking for the measured Total Cell Count of `CCn1cc(-c2ccnc3[nH]c(-c4cccc(CN(C)C)c4)cc23)c(-c2ccc(NC(=O)N(C)C)cc2)n1` , can you help?
Result: 141

Query: Looking for the measured Total Cell Count of `O=C(Cc1ccc(-c2ccc(OCCN3CCOCC3)cc2)cn1)NCc1ccccc1` , can you help?
Result: 172

Query: Looking for the measured Total Cell Count of `Cc1cn(-c2cc(NC(=O)c3ccc(C)c(Nc4nccc(-c5cccnc5)n4)c3)cc(C(F)(F)F)c2)cn1` , can you help?
Result: 134

Query: Looking for the measured Total Cell Count of `C=C1/C(=C\C=C2/CCC[C@]3(C)[C@@H]([C@H](C)/C=C/[C@H](C)C(C)C)CC[C@@H]23)C[C@@H](O)C[C@@H]1O` , can you help?
Result: 2

Query: Looking for the measured Total Cell Count of `Cc1cc(C)c(S(=O)(=O)N(Cc2ccc(-c3cccc(S(C)(=O)=O)c3)cc2)Cc2ccc(C(F)(F)F)o2)c(C)c1` , can you help?
Result: 77

Query: Looking for the measured Total Cell Count of `S=C(NCCCc1c[nH]cn1)NCCCN(Cc1ccc(Cl)c(Cl)c1)c1ccc(Br)cn1` , can you help?
Result: 193

====

- System: HEK-293T
- Assay Notes: Multiplex assay against HEK293T
- Format: toxicity, cell-based
- Study Conditions: human, 48 h, 10 µM, compound concentration 10 uM, replicate 1
Reported Property: Population Hoechst High Intensity Objects (%)
The reply should contain only the number, in %.

Compound	U	Value
CCN1CCN(Cc2ccc(Nc3ncc(F)c(-c4cc(F)c5nc(C)n(C(C)C)c5c4)n3)nc2)CC1.CS(=O)(=O)O	%	27

Query: Looking for the measured Population Hoechst High Intensity Objects (%) of O=C(Nc1ccc(-n2nc(-c3cccnc3)cc2C(F)(F)F)cn1)c1ccc(-c2ccccc2)c(F)c1 [BI 2049] , can you help?
Result: 18

Query: Looking for the measured Population Hoechst High Intensity Objects (%) of `CCOc1cc(C(=O)N2CCC(N3CCN(C)CC3)CC2)ccc1Nc1ncc2c(n1)N(C1CCCC1)c1ccccc1C(=O)N2C` , can you help?
Result: 20

Query: Looking for the measured Population Hoechst High Intensity Objects (%) of `COc1cc(N2CCN(C)CC2)ccc1Nc1ncc2c(n1)N(C)c1ccccc1C(=O)N2C` , can you help?
Result: 15

====

- Tested on: HEK-293T
- Assay Notes: Multiplex assay against HEK293T
- Type: toxicity, cell-based
- Study Conditions: human, 24 h, 1 µM, compound concentration 1 uM, replicate 1
Criterion: Population Fragmented Nuclei (%) strictly less than 20%. Met: Y. Not met: N.

Query: Answer whether the compound `COc1cc(N2CCN(C)CC2)ccc1Nc1ncc2c(n1)N(C)c1ccccc1C(=O)N2C` has Population Fragmented Nuclei (%) strictly less than 20%
Result: Y

====

- Tested on: HEK-293T
- Assay Notes: Multiplex assay against HEK293T
- Format: toxicity, cell-based
- Study Conditions: human, 12 h, 10 µM, compound concentration 10 uM, replicate 1
Reported Population Mitochondria Different-Phenotype (%) is given for each of the following compounds.
The reply must contain the numeric value and, after it, the unit.

Compound	Value
Cc1cc(C)c(S(=O)(=O)N(Cc2ccc(-c3cccc(S(C)(=O)=O)c3)cc2)Cc2ccc(C(F)(F)F)o2)c(C)c1	89%
COc1ccc(S(=O)(=O)N(CCO)c2ccccc2CN(C)C/C=C/c2ccc(Cl)cc2)cc1.O=P(O)(O)O	9%
O=C1N/C(=N/c2ccccc2F)S/C1=C\c1ccc(C(=O)O)cc1	63%
S=C(NCCCc1c[nH]cn1)NCCCN(Cc1ccc(Cl)c(Cl)c1)c1ccc(Br)cn1	66%
COC(=N)c1nc2ccc3ncnc(Nc4ccc(OC)cc4F)c3c2s1	6%
NC(=O)c1cccc(-c2cc(Nc3ccc(OC(F)(F)F)cc3)ncn2)c1	4%
CN1C2CCC1CC(OC(c1ccc(F)cc1)c1ccc(F)cc1)C2.Cl (stereo not drawn)	100%

For the next question, use this compound.
Query: Looking for the measured Population Mitochondria Different-Phenotype (%) of `Cl.Oc1ccc2c3c1O[C@H]1c4[nH]c5c(c4C[C@@]4(O)[C@@H](C2)N(CC2CC2)CC[C@]314)C[C@@]1(O)[C@H]2Cc3ccc(O)c4c3[C@@]1(CCN2CC1CC1)[C@H]5O4` , can you help?
Result: 79%

====

- Tested on: U2OS
- Assay Notes: Multiplex assay against U2OS
- Assay type: toxicity, cell-based
- Study Conditions: human, 48 h, 10 µM, compound concentration 10 uM, replicate 1
Reported Property: Population Mitochondria Different-Phenotype (%)
The reply should contain only the number, in %.

Solved entries (count: 4):
Compound	Value
CCOc1cc(C(=O)N2CCC(N3CCN(C)CC3)CC2)ccc1Nc1ncc2c(n1)N(C1CCCC1)c1ccccc1C(=O)N2C	100
O=C(Nc1ccc(-c2ccnc(Nc3ccc(N4CCOCC4)cc3)n2)cc1)[C@@H]1CCCN1	53
O=C1N/C(=N/c2ccccc2F)S/C1=C\c1ccc(C(=O)O)cc1	14
CCCn1c(=O)c2[nH]c(-c3cnn(Cc4cccc(C(F)(F)F)c4)c3)nc2n(CC)c1=O [GS 6201]	29

For the next question, use this compound.
Query: Looking for the measured Population Mitochondria Different-Phenotype (%) of O=C(Cc1ccc(-c2ccc(OCCN3CCOCC3)cc2)cn1)NCc1ccccc1 [TIRBANIBULIN] , can you help?
Result: 63
